- target_or_test_system: T1, recombinant Fc-tag-fused human Notch-1 extracellular domain (Homo sapiens, UniProt P46531)
- T1 construct: Notch-1, human, extracellular domain; No catalogue number and no residue limits are printed; also called N1; source: bought: R&D Systems
- T1 sequence (P46531 19-1735): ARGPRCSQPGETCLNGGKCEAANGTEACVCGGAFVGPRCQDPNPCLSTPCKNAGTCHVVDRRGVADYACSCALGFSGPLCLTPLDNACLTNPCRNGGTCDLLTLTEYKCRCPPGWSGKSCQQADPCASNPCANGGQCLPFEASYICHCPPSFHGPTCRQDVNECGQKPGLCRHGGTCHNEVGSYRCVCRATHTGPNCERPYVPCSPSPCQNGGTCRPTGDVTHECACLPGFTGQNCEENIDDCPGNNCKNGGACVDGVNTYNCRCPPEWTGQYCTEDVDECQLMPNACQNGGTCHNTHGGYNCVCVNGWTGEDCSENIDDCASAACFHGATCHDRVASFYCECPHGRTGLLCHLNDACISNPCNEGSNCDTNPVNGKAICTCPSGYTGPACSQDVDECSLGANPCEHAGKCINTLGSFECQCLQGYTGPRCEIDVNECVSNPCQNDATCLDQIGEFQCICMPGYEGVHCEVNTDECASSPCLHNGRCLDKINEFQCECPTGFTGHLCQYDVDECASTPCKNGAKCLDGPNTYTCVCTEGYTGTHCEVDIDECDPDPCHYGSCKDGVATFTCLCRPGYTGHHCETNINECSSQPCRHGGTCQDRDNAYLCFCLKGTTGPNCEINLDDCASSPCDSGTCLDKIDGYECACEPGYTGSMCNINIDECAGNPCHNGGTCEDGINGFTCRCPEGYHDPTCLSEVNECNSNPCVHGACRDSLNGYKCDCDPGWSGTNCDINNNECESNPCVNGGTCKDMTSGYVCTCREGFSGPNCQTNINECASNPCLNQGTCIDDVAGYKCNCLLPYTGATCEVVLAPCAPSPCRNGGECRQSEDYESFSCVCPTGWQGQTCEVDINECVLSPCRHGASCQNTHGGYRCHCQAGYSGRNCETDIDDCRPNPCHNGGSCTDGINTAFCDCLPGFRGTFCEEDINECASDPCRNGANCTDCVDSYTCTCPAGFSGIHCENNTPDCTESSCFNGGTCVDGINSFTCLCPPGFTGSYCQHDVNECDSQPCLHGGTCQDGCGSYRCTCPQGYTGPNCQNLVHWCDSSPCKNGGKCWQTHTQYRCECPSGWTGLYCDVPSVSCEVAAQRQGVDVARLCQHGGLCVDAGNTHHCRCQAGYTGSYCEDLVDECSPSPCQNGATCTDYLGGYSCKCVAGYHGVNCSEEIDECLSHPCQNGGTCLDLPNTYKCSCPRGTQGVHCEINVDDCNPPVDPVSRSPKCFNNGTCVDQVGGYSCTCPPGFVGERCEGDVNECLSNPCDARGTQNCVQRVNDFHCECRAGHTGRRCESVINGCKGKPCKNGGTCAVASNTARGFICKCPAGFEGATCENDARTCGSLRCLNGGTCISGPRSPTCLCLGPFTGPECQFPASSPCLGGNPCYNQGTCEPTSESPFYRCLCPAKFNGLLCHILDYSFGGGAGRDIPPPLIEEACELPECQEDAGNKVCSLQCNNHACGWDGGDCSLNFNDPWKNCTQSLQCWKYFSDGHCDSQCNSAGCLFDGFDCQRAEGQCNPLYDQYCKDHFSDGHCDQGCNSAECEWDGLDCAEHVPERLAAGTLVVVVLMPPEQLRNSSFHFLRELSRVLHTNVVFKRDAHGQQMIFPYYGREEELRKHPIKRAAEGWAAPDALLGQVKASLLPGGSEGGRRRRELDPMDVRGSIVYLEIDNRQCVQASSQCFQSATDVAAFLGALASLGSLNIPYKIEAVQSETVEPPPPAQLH
- assay_notes: BLI; Octet RED384; Fabs immobilised on amine-reactive generation-2 or anti-Fab CH1 biosensors, target proteins in solution at three or more concentrations; 25 C, PBS; global 1:1 fit; apparent KD (Fc-Notch proteins may dimerize, avidity)
- run_parameters: both partners purified
Below: a set of entries, each annotated with reported log10 of Kd.
Heads up, the numbers here are log10 of Kd in nM units.

binder="Fab N1/F/R1 (purified soluble Fab) (Fab, V domains shown, light chain on the modified trastuzumab framework of Library-F (Persson et al., 2013); CDRs L1 and L2 fixed; clone reconstructed from NGS information; Fab heavy chain on the modified trastuzumab framework of Library-F; medium CDRH3 length; The Fab is detected by an anti-HIS antibody; source: E. coli BL21, purified (Protein-L resin)) VH: EVQLVESGGGLVQPGGSLRLSCAASGFNIYSSYIHWVRQAPGKGLEWVASIYPYYGSTYYADSVKGRFTISADTSKNTAYLQMNSLRAEDTAVYYCARYAHFSVYGAMDYWGQGTLVTVSS VL: DIQMTQSPSSLSASVGDRVTITCRASQSVSSAVAWYQQKPGKAPKLLIYSASSLYSGVPSRFSGSRSGTDFTLTISSLQPEDFATYYCQQWYGGYALFTFGQGTKVEIK" quantity_name="log10 of Kd" val=0.30
binder="Fab N1/F/3 (purified soluble Fab) (Fab, V domains shown, light chain on the modified trastuzumab framework of Library-F (Persson et al., 2013); CDRs L1 and L2 fixed; Fab heavy chain on the modified trastuzumab framework of Library-F; short CDRH3; The Fab is detected by an anti-HIS antibody; source: E. coli BL21, purified (Protein-L resin)) VH: EVQLVESGGGLVQPGGSLRLSCAASGFNLYSYYIHWVRQAPGKGLEWVASISSYYGYTSYADSVKGRFTISADTSKNTAYLQMNSLRAEDTAVYYCARYWHGALDYWGQGTLVTVSS VL: DIQMTQSPSSLSASVGDRVTITCRASQSVSSAVAWYQQKPGKAPKLLIYSASSLYSGVPSRFSGSRSGTDFTLTISSLQPEDFATYYCQQGYFTYLFTFGQGTKVEIK" quantity_name="log10 of Kd" val=0.27
binder="Fab N1/F/R2 (purified soluble Fab) (Fab, V domains shown, light chain on the modified trastuzumab framework of Library-F (Persson et al., 2013); CDRs L1 and L2 fixed; clone reconstructed from NGS information; Fab heavy chain on the modified trastuzumab framework of Library-F; medium CDRH3 length; The Fab is detected by an anti-HIS antibody; source: E. coli BL21, purified (Protein-L resin)) VH: EVQLVESGGGLVQPGGSLRLSCAASGFNFSSSSIHWVRQAPGKGLEWVASIYSYYGYTYYADSVKGRFTISADTSKNTAYLQMNSLRAEDTAVYYCARSWWGGSWYAALDYWGQGTLVTVSS VL: DIQMTQSPSSLSASVGDRVTITCRASQSVSSAVAWYQQKPGKAPKLLIYSASSLYSGVPSRFSGSRSGTDFTLTISSLQPEDFATYYCQQWWSLITFGQGTKVEIK" quantity_name="log10 of Kd" val=0.14
binder="Fab N1/ModF/5 (purified soluble Fab) (Fab, V domains shown, light chain on the modified trastuzumab framework of the Modified-F library (template: anti-MBP Fab phagemid of Library-F, Persson et al., 2013); CDRs L1 and L2 fixed; Fab heavy chain on the modified trastuzumab framework of the Modified-F library; long CDRH3; The Fab is detected by an anti-HIS antibody; source: E. coli BL21, purified (Protein-L resin)) VH: EVQLVESGGGLVQPGGSLRLSCAASGFNISSSYMHWVRQAPGKGLEWVASIYSYSGSTYYADSVKGRFTISADTSKNTAYLQMNSLRAEDTAVYYCARSGYSGVSGSVYSYWPFYGLDYWGQGTLVTVSS VL: DIQMTQSPSSLSASVGDRVTITCRASQSVSSAVAWYQQKPGKAPKLLIYSASSLYSGVPSRFSGSRSGTDFTLTISSLQPEDFATYYCQQGPYHGYSLITFGQGTKVEIK" quantity_name="log10 of Kd" val=-0.17
binder="Fab N1/F/R3 (purified soluble Fab) (Fab, V domains shown, light chain on the modified trastuzumab framework of Library-F (Persson et al., 2013); CDRs L1 and L2 fixed; clone reconstructed from NGS information; Fab heavy chain on the modified trastuzumab framework of Library-F; medium CDRH3 length; The Fab is detected by an anti-HIS antibody; source: E. coli BL21, purified (Protein-L resin)) VH: EVQLVESGGGLVQPGGSLRLSCAASGFNIYSSYMHWVRQAPGKGLEWVASIYPYYGYTSYADSVKGRFTISADTSKNTAYLQMNSLRAEDTAVYYCARYFSYGPFYYGSGLDYWGQGTLVTVSS VL: DIQMTQSPSSLSASVGDRVTITCRASQSVSSAVAWYQQKPGKAPKLLIYSASSLYSGVPSRFSGSRSGTDFTLTISSLQPEDFATYYCQQGFSLITFGQGTKVEIK" quantity_name="log10 of Kd" val=0.82

Look up log10 of Kd: Fab N1/F/2 (purified soluble Fab) (Fab, V domains shown, light chain on the modified trastuzumab framework of Library-F (Persson et al., 2013); CDRs L1 and L2 fixed; Fab heavy chain on the modified trastuzumab framework of Library-F; short CDRH3; The Fab is detected by an anti-HIS antibody; source: E. coli BL21, purified (Protein-L resin)) VH: EVQLVESGGGLVQPGGSLRLSCAASGFNLSSYSIHWVRQAPGKGLEWVASISSSYGYTYYADSVKGRFTISADTSKNTAYLQMNSLRAEDTAVYYCARGYYAFDYWGQGTLVTVSS VL: DIQMTQSPSSLSASVGDRVTITCRASQSVSSAVAWYQQKPGKAPKLLIYSASSLYSGVPSRFSGSRSGTDFTLTISSLQPEDFATYYCQQWWSFPLITFGQGTKVEIK -0.35
